tested on: Epidermal growth factor receptor (Homo sapiens), P00533 [L861Q]; conditions: at 0.1 µM
Sequence (P00533 whole entry L861Q): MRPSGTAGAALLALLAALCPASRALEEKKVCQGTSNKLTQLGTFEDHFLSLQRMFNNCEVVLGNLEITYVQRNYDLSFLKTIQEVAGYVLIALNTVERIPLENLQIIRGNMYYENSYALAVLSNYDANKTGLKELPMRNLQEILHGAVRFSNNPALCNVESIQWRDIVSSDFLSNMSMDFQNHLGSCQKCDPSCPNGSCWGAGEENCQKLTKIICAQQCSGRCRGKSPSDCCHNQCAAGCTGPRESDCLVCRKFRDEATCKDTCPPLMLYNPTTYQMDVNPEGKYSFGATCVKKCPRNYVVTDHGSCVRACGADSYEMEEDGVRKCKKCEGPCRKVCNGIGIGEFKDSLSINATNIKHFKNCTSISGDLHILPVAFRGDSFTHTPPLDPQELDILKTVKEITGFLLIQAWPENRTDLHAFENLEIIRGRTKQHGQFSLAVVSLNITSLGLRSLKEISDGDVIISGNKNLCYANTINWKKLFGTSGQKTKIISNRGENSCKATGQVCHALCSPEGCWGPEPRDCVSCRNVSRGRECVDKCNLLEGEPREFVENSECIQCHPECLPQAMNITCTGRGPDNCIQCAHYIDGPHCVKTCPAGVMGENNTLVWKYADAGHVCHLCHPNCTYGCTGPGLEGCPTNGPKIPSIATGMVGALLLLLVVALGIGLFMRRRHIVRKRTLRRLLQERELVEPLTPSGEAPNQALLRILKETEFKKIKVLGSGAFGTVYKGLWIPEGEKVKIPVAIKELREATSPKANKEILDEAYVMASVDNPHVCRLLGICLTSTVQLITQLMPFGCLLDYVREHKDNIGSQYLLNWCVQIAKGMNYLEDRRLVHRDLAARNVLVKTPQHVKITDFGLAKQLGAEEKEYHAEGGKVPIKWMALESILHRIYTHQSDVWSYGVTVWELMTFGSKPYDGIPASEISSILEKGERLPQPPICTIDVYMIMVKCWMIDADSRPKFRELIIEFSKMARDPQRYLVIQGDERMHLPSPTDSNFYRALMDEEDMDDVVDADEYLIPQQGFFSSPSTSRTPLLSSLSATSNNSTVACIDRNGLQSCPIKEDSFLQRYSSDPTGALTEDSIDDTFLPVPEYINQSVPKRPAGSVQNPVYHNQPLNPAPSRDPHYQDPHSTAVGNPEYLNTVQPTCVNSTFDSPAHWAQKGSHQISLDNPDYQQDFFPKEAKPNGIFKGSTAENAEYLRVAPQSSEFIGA
measured_attribute: inhibition (%)

>>> value_reported("CC1=C(C(=O)Nc2ccc3[nH]ncc3c2)C(c2ccc(F)cc2)N=C(c2ccc(C(F)(F)F)nc2)N1 (centres undefined)")
2.32
>>> value_reported("CC1(C)CC(n2cnc(-c3ccc(F)cc3)c2-c2ccnc(N)n2)CC(C)(C)N1")
-0.41
>>> value_reported("Fc1cccc(COc2ccc(Nc3ncncc3C#Cc3ccccc3)cc2Cl)c1")
16.6
>>> value_reported("Cc1ccc(-c2cc3c(NC(=O)C4CC4)ncnc3o2)cc1")
2.3
>>> value_reported("CNC(=O)c1sc(-n2cnc3cc(OC)c(OC)cc32)cc1OCc1ccccc1C(F)(F)F")
1.16
>>> value_reported("CS(=O)(=O)CCNCc1ccc(-c2ccc3ncnc(Nc4ccc(OCc5ccccc5)cc4)c3c2)o1")
33
>>> value_reported("OCCCNc1nccc(-c2c(-c3ccc(F)cc3)nn3cc(C(F)(F)F)ccc23)n1")
2.61
>>> value_reported("N#Cc1ccc2c(-c3ccnc(NC4CC4)n3)c(-c3ccc(F)cc3)nn2c1")
1.64
>>> value_reported("COC(=O)Nc1nc2cc(Oc3ccc(NC(=O)Nc4ccccc4)cc3)ccc2[nH]1")
1.19

====

biological target: Rho-associated protein kinase 2 (Homo sapiens); conditions: at 1 µM
Description: GSK_PKIS: ROCK2 mean inhibition at 1 uM [Nanosyn]
measured_attribute: inhibition

>>> value_reported("O=C(O[C@H]1CN[C@H](C#Cc2cc3ncnc(Nc4ccc5c(ccn5Cc5cc(F)ccc5F)c4)c3s2)C1)N1CCOCC1")
"5.23%"
>>> value_reported("CCS(=O)(=O)c1ccc(OC)c(Nc2ncc(-c3cccc(F)c3)o2)c1")
"3.95%"
>>> value_reported("CC1=C(C(=O)Nc2ccc3[nH]ncc3c2)C(c2ccc(F)cc2)N=C(c2ccc(C(F)(F)F)nc2)N1 (stereo not given)")
"75%"
>>> value_reported("c1cnn2ncc(-c3ccnc(NCCCN4CCOCC4)n3)c2c1")
"4.16%"
>>> value_reported("CS(=O)(=O)Nc1ccc(-c2ccc3c(NC(=O)C4CC4)n[nH]c3c2)cc1")
"-0.32%"

====

target: Dual specificity tyrosine-phosphorylation-regulated kinase 1B (Homo sapiens) (UniProt Q9Y463); conditions: at 1 µM;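 further: values are mean percent inhibition of DYRK1B, from the GSK_PKIS set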
Sequence (Q9Y463 whole entry, looked up): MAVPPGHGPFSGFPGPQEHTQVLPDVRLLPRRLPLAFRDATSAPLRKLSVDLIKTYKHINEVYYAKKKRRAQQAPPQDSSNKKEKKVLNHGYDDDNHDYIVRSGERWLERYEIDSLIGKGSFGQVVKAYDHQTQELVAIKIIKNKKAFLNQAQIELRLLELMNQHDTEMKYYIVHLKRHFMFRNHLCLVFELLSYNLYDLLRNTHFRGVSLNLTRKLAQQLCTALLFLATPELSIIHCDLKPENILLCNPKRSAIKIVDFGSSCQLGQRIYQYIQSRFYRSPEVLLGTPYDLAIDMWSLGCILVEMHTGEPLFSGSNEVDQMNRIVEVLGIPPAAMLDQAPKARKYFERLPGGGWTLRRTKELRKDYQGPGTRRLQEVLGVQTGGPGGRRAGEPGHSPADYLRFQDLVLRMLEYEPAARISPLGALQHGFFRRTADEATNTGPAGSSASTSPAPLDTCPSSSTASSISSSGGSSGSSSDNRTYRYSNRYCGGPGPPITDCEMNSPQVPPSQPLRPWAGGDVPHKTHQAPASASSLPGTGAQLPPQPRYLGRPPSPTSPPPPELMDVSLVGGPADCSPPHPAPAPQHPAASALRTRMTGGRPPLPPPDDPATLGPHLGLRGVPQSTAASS
measured_attribute: inhibition (%)

>>> value_reported("COc1cc(Nc2ncc(-c3ccccc3)o2)cc(OC)c1")
0.86
>>> value_reported("CCS(=O)(=O)c1ccc(OC)c(Nc2ncc(-c3cccc(C(C)=O)c3)o2)c1")
33.2
>>> value_reported("COC(=O)Nc1nc2ccc(Oc3ccc(NC(=O)Nc4cc(C(F)(F)F)ccc4F)cc3)cc2s1")
2.02
>>> value_reported("FC(F)(F)CNc1nccc(-c2cnn3ncccc23)n1")
59
>>> value_reported("O=C(O[C@H]1CN[C@H](C#Cc2cc3ncnc(Nc4ccc5c(cnn5Cc5ccccc5)c4)c3s2)C1)N1CCOCC1")
-0.85
>>> value_reported("Fc1cccc(COc2ccc(Nc3ncncc3C#Cc3ccccc3)cc2Cl)c1")
1.45
>>> value_reported("CC1=C(C(=O)Nc2ccc3[nH]nc(C)c3c2)C(c2ccc(C(F)(F)F)cc2)CC(=O)N1 (configuration not stated)")
4.23
>>> value_reported("O=C1Nc2ccccc2/C1=C1\\CCc2cc(O)ccc21")
17.7
>>> value_reported("CNC(=O)c1sc(-n2cnc3cc(OC)c(OC)cc32)cc1OCc1ccccc1C(F)(F)F")
0.23
>>> value_reported("CS(=O)(=O)CCNCc1ccc(-c2ccc3ncnc(Nc4ccc(OCc5cccc(C(F)(F)F)c5)cc4)c3c2)o1")
1.03
>>> value_reported("CCOc1ccc2c(-c3ccnc(Nc4cc(OC)cc(C(F)(F)F)c4)n3)cnn2n1")
38.8
>>> value_reported("Cc1cc(O)cc(C)c1/C=C/c1cncc(C(N)=O)c1")
2.81

====

molecular target: Serine/threonine-protein kinase Sgk3 (Homo sapiens); details: at 1 µM;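 further: each value is a mean of replicate inhibition readings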
Listed here are compounds together with their documented inhibition.
measured_attribute: inhibition (%)

>>> value_reported("COc1ccccc1-c1cc(/C=C2\\C(=O)Nc3ncc(Br)cc32)cc(Br)c1O")
0.16
>>> value_reported("CNC(=O)c1sc(-n2cnc3cc(OC)c(OC)cc32)cc1OCc1ccccc1C(F)(F)F")
1.89
>>> value_reported("N#Cc1cccc(Nc2ncc(-c3ccccc3)o2)c1")
5.3
>>> value_reported("CC1=C(C(=O)Nc2ccc3[nH]ncc3c2)C(c2ccc(F)cc2)N=C(c2ccc(C(F)(F)F)nc2)N1 (centres undefined)")
2.31

====

Listed here are molecules together with their documented inhibition.
biological target: PAS domain-containing serine/threonine-protein kinase (Homo sapiens); conditions: at 0.1 µM
Description: GSK_PKIS: PASK mean inhibition at 0.1 uM [Nanosyn]
measured_attribute: inhibition (%)

>>> value_reported("CCS(=O)(=O)c1ccc(OC)c(Nc2ncc(-c3cccc(F)c3)o2)c1")
-0.05
>>> value_reported("CS(=O)(=O)CCNCc1ccoc1-c1ccc2ncnc(Nc3ccc(OCc4ccccc4)cc3)c2c1")
1.27
>>> value_reported("COc1ccc(Nc2ncc(-c3ccccc3)o2)cc1OC")
0.54
>>> value_reported("CN1CCC(n2cnc(-c3ccc(F)cc3)c2-c2ccnc(NCCO)n2)CC1")
0.82
>>> value_reported("Cn1c(-c2nonc2N)nc2cnccc21")
0.4
>>> value_reported("N#Cc1cccc(Nc2ncc(-c3ccccc3)o2)c1")
0.37

====

test system: Serine/threonine-protein kinase B-raf (Homo sapiens), P15056 [V600E]; conditions: at 1 µM;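 further: enzyme inhibition of the BRAF V599E mutant kinase, given as mean percent inhibition, screened within the GSK PKIS kinase inhibitor set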
Sequence (P15056 whole entry V600E): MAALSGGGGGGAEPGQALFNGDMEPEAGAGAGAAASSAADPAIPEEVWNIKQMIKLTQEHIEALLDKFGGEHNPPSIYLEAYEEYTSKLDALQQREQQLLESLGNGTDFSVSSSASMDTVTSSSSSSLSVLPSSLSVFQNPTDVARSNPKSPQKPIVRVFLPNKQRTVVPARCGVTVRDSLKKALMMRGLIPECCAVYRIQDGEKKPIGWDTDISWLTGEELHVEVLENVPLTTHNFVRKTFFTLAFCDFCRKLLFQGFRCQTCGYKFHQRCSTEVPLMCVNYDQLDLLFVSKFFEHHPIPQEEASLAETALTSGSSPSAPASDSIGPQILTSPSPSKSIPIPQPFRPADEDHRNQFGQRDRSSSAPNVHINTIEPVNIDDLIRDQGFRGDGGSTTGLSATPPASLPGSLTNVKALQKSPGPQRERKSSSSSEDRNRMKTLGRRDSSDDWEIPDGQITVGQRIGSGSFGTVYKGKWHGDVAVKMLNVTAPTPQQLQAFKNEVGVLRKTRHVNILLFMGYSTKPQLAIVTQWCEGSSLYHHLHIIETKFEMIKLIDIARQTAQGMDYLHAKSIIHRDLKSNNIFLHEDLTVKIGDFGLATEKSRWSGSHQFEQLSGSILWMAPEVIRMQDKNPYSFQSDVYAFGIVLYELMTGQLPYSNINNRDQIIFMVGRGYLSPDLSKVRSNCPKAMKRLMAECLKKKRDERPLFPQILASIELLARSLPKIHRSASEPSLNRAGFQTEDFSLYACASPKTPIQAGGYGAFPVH
Description: GSK_PKIS: BRAF (V599E mutant) mean inhibition at 1 uM [Nanosyn]
measured_attribute: inhibition (%)

>>> value_reported("c1cnn2ncc(-c3ccnc(NCCCN4CCOCC4)n3)c2c1")
5.03
>>> value_reported("COc1c(C(N)=O)cc(-c2ccc(Cl)cc2)cc1-c1ccc(S(N)(=O)=O)cc1")
3.68
>>> value_reported("CS(=O)(=O)Nc1ccc(-c2ccc3c(NC(=O)C4CC4)n[nH]c3c2)cc1")
6.11
>>> value_reported("NS(=O)(=O)c1cccc(N/C=C2\\C(=O)Nc3ccccc32)c1")
7.82
>>> value_reported("COc1cc(Nc2ncc(-c3ccccc3)o2)cc(OC)c1")
3.47
>>> value_reported("Cc1nnc(-c2cccc(-c3ccc(C(=O)NCC4CC4)cc3)c2)o1")
5.64

====

Listed here are compounds together with their documented inhibition.
molecular target: Tyrosine-protein kinase Yes (Homo sapiens) (UniProt P07947); settings: at 1 µM;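 further: values are mean percent inhibition of YES kinase activity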
Sequence (P07947 2-543 limits assumed): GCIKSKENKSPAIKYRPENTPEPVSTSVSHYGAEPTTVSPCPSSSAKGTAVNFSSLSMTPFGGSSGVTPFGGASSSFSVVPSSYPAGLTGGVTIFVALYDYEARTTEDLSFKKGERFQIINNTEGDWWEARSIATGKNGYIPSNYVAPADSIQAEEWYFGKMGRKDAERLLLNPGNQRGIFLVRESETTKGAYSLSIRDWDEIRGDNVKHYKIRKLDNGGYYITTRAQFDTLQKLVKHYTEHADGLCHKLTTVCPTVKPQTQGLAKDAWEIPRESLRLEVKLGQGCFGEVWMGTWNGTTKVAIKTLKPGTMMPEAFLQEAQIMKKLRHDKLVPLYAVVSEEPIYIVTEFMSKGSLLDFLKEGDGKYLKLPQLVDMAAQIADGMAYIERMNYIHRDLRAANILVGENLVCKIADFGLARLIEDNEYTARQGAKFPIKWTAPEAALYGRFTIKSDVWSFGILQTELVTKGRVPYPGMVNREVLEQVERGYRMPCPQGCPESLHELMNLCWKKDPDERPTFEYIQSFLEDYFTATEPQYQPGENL
measured_attribute: inhibition

>>> value_reported("CC(C)c1ccc(-c2cc(-c3c[nH]nc3-c3ccccn3)ccn2)cc1")
"0.34%"
>>> value_reported("Fc1cccc(COc2ccc(Nc3ncncc3C#Cc3ccccc3)cc2Cl)c1")
"3.65%"
>>> value_reported("Cn1c(-c2nonc2N)nc2cnccc21")
"1.42%"
>>> value_reported("O=C(Nc1n[nH]c2nnc(-c3cccnc3)cc12)C1CC1")
"7.01%"
>>> value_reported("c1ccc(-c2n[nH]cc2-c2ccnc(-c3ccc(OCCn4ccnc4)cc3)c2)nc1")
"8.13%"
>>> value_reported("CN(C)CCNC(=O)Nc1ccc(N(C)c2ccnc(Nc3ccc(CS(C)(=O)=O)cc3)n2)cc1")
"2.71%"
>>> value_reported("COC(=O)Nc1nc2cc(Oc3ccc(NC(=O)Nc4ccccc4)cc3)ccc2[nH]1")
"4.69%"
>>> value_reported("COc1cccc(Nc2nccc(-c3cnn4ncccc34)n2)c1")
"20.5%"
>>> value_reported("COc1ccc2ncn(-c3cc(O[C@H](C)c4ccccc4C(F)(F)F)c(C(N)=O)s3)c2c1")
"1.07%"
>>> value_reported("CCN1CCC(C(=O)Nc2n[nH]c3nnc(-c4cccc(F)c4F)cc23)CC1")
"-0.1%"

====

biological target: Death-associated protein kinase 1 (Homo sapiens) (UniProt P53355); conditions: at 1 µM;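 further: each value is a mean inhibition figure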
Sequence (P53355 whole entry, looked up): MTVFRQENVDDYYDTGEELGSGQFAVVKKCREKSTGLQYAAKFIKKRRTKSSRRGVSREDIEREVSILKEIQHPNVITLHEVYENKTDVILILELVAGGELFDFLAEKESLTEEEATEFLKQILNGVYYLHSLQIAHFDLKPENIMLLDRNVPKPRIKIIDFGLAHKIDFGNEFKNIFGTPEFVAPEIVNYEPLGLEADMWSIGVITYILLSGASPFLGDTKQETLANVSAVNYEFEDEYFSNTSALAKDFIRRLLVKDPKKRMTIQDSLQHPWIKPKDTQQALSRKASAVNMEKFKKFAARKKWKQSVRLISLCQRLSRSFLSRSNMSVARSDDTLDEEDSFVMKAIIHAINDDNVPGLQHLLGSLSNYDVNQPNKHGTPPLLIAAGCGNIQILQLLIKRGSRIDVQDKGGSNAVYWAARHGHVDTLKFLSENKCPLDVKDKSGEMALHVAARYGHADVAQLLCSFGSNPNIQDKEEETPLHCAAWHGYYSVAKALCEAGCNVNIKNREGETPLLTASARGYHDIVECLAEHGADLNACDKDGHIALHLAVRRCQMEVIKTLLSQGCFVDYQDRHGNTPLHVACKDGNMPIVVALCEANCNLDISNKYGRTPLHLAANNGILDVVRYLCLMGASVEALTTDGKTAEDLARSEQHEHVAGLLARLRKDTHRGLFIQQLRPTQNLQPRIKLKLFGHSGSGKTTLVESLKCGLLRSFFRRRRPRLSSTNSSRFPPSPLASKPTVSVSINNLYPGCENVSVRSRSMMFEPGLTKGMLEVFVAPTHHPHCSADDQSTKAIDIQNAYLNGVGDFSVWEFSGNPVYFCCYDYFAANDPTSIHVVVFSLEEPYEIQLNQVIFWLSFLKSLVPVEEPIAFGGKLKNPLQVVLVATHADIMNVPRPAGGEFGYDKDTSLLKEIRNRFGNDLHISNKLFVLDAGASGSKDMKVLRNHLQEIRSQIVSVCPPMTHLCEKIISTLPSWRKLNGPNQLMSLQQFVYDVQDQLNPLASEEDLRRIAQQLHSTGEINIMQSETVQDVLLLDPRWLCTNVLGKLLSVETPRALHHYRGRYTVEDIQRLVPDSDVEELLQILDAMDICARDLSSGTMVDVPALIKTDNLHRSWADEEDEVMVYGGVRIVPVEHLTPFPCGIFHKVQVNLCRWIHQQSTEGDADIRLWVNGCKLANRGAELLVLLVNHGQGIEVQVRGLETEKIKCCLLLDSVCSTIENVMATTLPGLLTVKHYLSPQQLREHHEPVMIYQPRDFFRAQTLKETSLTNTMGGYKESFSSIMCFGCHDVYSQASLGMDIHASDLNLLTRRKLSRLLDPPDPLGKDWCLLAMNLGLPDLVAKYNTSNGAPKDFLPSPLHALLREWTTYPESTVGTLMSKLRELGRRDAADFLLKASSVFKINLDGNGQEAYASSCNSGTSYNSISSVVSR
measured_attribute: inhibition (%)

>>> value_reported("COc1ccc(-c2nn3ncccc3c2-c2ccnc(Nc3ccc(F)c(F)c3)n2)cc1")
6.8
>>> value_reported("O=C1Nc2ccccc2/C1=C1\\CCc2cc(O)ccc21")
-2.93
>>> value_reported("NS(=O)(=O)c1cccc(N/C=C2\\C(=O)Nc3ccccc32)c1")
12.5
>>> value_reported("NS(=O)(=O)c1ccc(N/N=C2\\C(=O)Nc3cccc(CCc4ccncc4)c32)cc1")
-1.65
>>> value_reported("c1cnn2ncc(-c3ccnc(NCCCN4CCOCC4)n3)c2c1")
-0.07
>>> value_reported("O=C(O[C@H]1CN[C@H](C#Cc2cc3ncnc(Nc4ccc(OCc5cccc(F)c5)c(Cl)c4)c3s2)C1)N1CCOCC1")
-0.32
>>> value_reported("COc1ccccc1-c1cc(/C=C2\\C(=O)Nc3ncc(Br)cc32)cc(Br)c1O")
4.6
>>> value_reported("c1ccc(-c2n[nH]cc2-c2ccnc(-c3ccc(OCCn4ccnc4)cc3)c2)nc1")
-8.69
>>> value_reported("O=C(O[C@H]1CN[C@H](C#Cc2cc3ncnc(Nc4ccc5c(ccn5Cc5cc(F)ccc5F)c4)c3s2)C1)N1CCOCC1")
-3.4
>>> value_reported("CC(C)c1ccc(-c2cc(-c3c[nH]nc3-c3ccccn3)ccn2)cc1")
-0.6
>>> value_reported("COc1c(C(N)=O)cc(-c2ccc(Cl)cc2)cc1-c1ccc(S(N)(=O)=O)cc1")
0.56
>>> value_reported("Fc1cccc(COc2ccc(Nc3ncncc3C#Cc3ccccc3)cc2Cl)c1")
5.6
>>> value_reported("CNC(=O)c1ncccc1Nc1nc(Nc2cc3c(cc2OC)CCCN3C(=O)CN(C)C)nc2[nH]ccc12")
7.57
>>> value_reported("CS(=O)(=O)CCNCc1ccc(-c2ccc3ncnc(Nc4ccc(OCc5cccc(C(F)(F)F)c5)cc4)c3c2)o1")
5.63
>>> value_reported("COc1cccc(Nc2nccc(-c3cnn4ncccc34)n2)c1")
0.16
>>> value_reported("CCN1CCC(C(=O)Nc2n[nH]c3nnc(-c4cccc(F)c4F)cc23)CC1")
-1.64
>>> value_reported("COc1ccc(Nc2ncc(-c3ccccc3)o2)cc1OC")
1.47
>>> value_reported("CC1(C)CC(n2cnc(-c3ccc(F)cc3)c2-c2ccnc(N)n2)CC(C)(C)N1")
-7.03
>>> value_reported("OCCCNc1nccc(-c2c(-c3ccc(F)cc3)nn3cc(C(F)(F)F)ccc23)n1")
1.04
>>> value_reported("COC(=O)Nc1nc2cc(Oc3ccc(NC(=O)Nc4ccccc4)cc3)ccc2[nH]1")
3.19
